System: S. faec.
assay: Competitive inhibition of ALP binding to bacteria by added protein (Example 3, Table 2)
setup_conditions: protein 2-40 μg added with ALP 2 μg
Would you mind telling me the reported inhibition of the binding of ALP by bacteria of each entry?

Name the recorded inhibition of the binding of ALP by bacteria of the molecule listed here: Bikunin: urinary trypsin inhibitor with two glycoconjugate chains and two Kunitz inhibitor domains (protein, UniProt P02760 206-352, looked up, Inter-alpha-trypsin inhibitor light chain) Inter-alpha-trypsin inhibitor …: AVLPQEEEGSGGGQLVTEVTKKEDSCQLGYSAGPCMGMTSRYFYNGTSMACETFQYGGCMGNGNNFVTEKECLQTCRTVAACNLPIVRGPCRAFIQLWAFDAVKGKCVLFPYGGCQGNGNKFYSEKECREYCGVPGDGDEELLRFSN
>90%

Name the recorded inhibition of the binding of ALP by bacteria of the molecule listed here: Uristatin: urinary trypsin inhibitor lacking the O-linked glycoconjugate chain (protein, UniProt P02760 206-352, looked up, Inter-alpha-trypsin inhibitor light chain lacks O-linked glycan chain) Inter-alpha-trypsin inhibitor …: AVLPQEEEGSGGGQLVTEVTKKEDSCQLGYSAGPCMGMTSRYFYNGTSMACETFQYGGCMGNGNNFVTEKECLQTCRTVAACNLPIVRGPCRAFIQLWAFDAVKGKCVLFPYGGCQGNGNKFYSEKECREYCGVPGDGDEELLRFSN
>90%
